# experimental system: SIRT1 (Homo sapiens)
# Sequence (Q96EB6 1-747): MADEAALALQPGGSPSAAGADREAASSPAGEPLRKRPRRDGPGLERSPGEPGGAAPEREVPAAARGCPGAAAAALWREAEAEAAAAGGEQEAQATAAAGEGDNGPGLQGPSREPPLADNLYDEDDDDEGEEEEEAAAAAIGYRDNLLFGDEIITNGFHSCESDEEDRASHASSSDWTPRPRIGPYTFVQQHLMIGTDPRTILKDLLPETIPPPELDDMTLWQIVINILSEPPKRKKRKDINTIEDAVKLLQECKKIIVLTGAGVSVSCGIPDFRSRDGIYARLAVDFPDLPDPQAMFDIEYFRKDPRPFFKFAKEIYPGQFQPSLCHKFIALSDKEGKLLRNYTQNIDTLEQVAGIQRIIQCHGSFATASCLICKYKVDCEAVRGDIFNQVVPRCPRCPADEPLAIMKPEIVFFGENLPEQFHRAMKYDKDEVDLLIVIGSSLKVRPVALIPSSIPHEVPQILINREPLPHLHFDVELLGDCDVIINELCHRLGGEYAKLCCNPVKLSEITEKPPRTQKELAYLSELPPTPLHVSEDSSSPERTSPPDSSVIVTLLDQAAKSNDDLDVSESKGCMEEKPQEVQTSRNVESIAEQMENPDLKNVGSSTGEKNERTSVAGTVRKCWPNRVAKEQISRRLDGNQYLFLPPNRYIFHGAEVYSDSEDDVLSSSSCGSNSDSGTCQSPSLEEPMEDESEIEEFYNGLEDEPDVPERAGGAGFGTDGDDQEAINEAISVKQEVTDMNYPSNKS
# protocol details: Mass spectrometry based assay to identify modulators of SIRT1 activity (deacetylation of p53-based acetylated peptide substrate)
# Type: biochemical
# setup conditions: SIRT1 activation; 10 nM SIRT1, 0.5 μM peptide substrate, 120 μM βNAD+, 25 minutes at 25° C.
test readout: EC1.5

>>> print(df.to_string())
                                   molecule  test_readout             result
0  O=C(Nc1ccccc1-c1nc2ccncc2s1)c1cc(N2CCNCC2)nc(-c2ccccc2)n1 [Compound 23]         EC1.5  A′ (EC1.5<250 nM)
1  O=C(Nc1ccccc1-c1nc2cccnc2s1)c1cc(N2CCN3CCC[C@H]3C2)cc(-c2ccccc2)n1 [Compound 144]         EC1.5  A′ (EC1.5<250 nM)
